Molecular target: T1, Recombinant human Dkk-1 (R&D Systems cat no. 1096-DK/CF), 10xHis tag at the C terminal (human, UniProt O94907 32-266)
T1 construct: the actual N-terminus of the purified protein is marked in bold italic after residue 30, but the mark is an image lost in the text; also called rhuDkk-1; hDkk-1
T1 sequence: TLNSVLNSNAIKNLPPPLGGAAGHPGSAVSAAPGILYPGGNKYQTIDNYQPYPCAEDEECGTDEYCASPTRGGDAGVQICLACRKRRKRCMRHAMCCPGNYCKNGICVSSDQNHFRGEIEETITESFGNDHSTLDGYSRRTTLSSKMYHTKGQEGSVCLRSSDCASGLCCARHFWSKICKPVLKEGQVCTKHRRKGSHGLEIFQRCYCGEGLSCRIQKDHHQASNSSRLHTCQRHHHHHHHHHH
Test: SPR 37C (BIAcore/ProteOn), hDkk-1 series over captured IgG (taken so as kon is printed)
QUANTITY_NAME: koff
Respond with a number, then the unit of measure.

Problem: GET /values?readout=koff&item= 4F10.33L (antibody, V domains shown) VH: EVQLVESGGGLVQPGGSLRLSCAASGFTFSSYAISWVRQAPGKGLEWVASVSGTGLGFQTYYPDSVKGRFTISRDNAKNSLYLQMNSLRAEDTAVYYCATSLKNYAFDYWGQGTTVTVSS VL: EIVLTQSPATLSLSPGERATLSCRASESVDDFGISFINWYQQKPGQAPRLLIYAGSKQGSGIPARFSGSGSGTDFTLTISSLEPEDFAVYYCQQLKEVPPTFGGGTKVEIK
Result: 8.55e-05 s⁻¹

Values compiled from patent US20130071921A1.
